B1: RSPH3 (parent)
chain: LELQRQREARKRALARKQAQEQLR

- Variants of: B1
- protocol_details: protein stability index of a GFP-peptide fusion (GPS, HEK-293T) (PSI 1-6); higher = more stable;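 further: lentivirally expressed fusions sorted by FACS into six bins by GFP to DsRed ratio, PSI derived from sequencing read proportions per bin multiplied by bin number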
- condition_context: c terminus: a fixed tail appended
Output 1.0 for protein stability index not less than 4; output 0.0 otherwise.

Determine whether measured protein stability index meets or exceeds 4 for `R12Y`
0.0

Determine whether measured protein stability index meets or exceeds 4 for `K17H`
1.0

Determine whether measured protein stability index meets or exceeds 4 for `K11L`
0.0

Determine whether measured protein stability index meets or exceeds 4 for `L3D`
1.0

Determine whether measured protein stability index meets or exceeds 4 for `R10P`
1.0

Determine whether measured protein stability index meets or exceeds 4 for `L23K`
0.0

Determine whether measured protein stability index meets or exceeds 4 for `E8S`
0.0

Determine whether measured protein stability index meets or exceeds 4 for `K11P`
0.0

Determine whether measured protein stability index meets or exceeds 4 for `Q22Y`
0.0

Determine whether measured protein stability index meets or exceeds 4 for `Q22N`
1.0

Determine whether measured protein stability index meets or exceeds 4 for `K11W`
0.0

Determine whether measured protein stability index meets or exceeds 4 for `K17W`
0.0

Determine whether measured protein stability index meets or exceeds 4 for `Q18G`
0.0

Determine whether measured protein stability index meets or exceeds 4 for `A13C`
0.0

Determine whether measured protein stability index meets or exceeds 4 for `Q4M`
0.0

Determine whether measured protein stability index meets or exceeds 4 for `R16E`
1.0

Data origin, for the record: the supplement of paper PMC10567573
